pIC50 reference
Tested on: CEM cells HIV-1 protection, formazan growth assay
Assay: NCI AIDS Antiviral Assay
Conditions: measured here: growth of uninfected CEM cells
pIC50: −log10 of the molar value.

SMILES | TARGET_OR_TEST_SYSTEM | INEQUALITY_SIGN | pIC50
O=C(O)c1ccc(C(=O)c2ccccc2C(=O)O)cc1C(=O)O | CEM cells HIV-1 protection, formazan growth assay | < | 3.70
COc1ccc(C(=C2C(=O)N(c3ccccc3)C(=O)C2=C(C)C)c2ccc(OC)cc2)cc1 | CEM cells HIV-1 protection, formazan growth assay | = | 5.47
COc1cc(CNc2ccc(C(C)C)cc2)cc(OC)c1OC | CEM cells HIV-1 protection, formazan growth assay | = | 4.50
CC(C)N(C(=O)c1ccc(NCc2cc(O)ccc2O)cc1)C(C)C | CEM cells HIV-1 protection, formazan growth assay | = | 4.90
N#C/C(c1nc2ccccc2[nH]1)=c1\s/c(=C(/N)O)c(=N)n1-c1ccccc1 | CEM cells HIV-1 protection, formazan growth assay | < | 4.86
COc1ccc(OC)c(/C=C/c2cnnc3ccccc23)c1 | CEM cells HIV-1 protection, formazan growth assay | = | 5.50
